Target: T1, AFP158/HLA-A*02:01 complex (human)
T1 construct: biotinylated on the BSP by BirA for ELISA and panning; also called biotinylated AFP158/HLA-A*02:01 complex; Bio-AFP158
Test: SPR, crude scFv captured;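 note: Peptide–MHC complex flowed at several concentrations over sensorchip-captured scFv, Kd derived from on- and off-rates obtained from the association and dissociation curves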
recorded.endpoint: Kd (nM)
// units = nM; emit number, no label

binder | Kd / nM
AS170036 VL1VH1 HS57F (scFv) scFv: QSALTQPRSVSGSPGQSVTISCAGTSSDVGSENYVSWYQQHPGKAPKLMIYQVNKRASGVPDRFSGSKSGNTASLTISGLQAEDEADYYCASYRSSDHNIVFGGGTKLTVLGGGGSGGGGSGGGGSEVQLVESGGGLVQPGGSLRLSCAASGFTFSSYAMSWVRQAPGKGLEWVSTINSGTGFPYYADSVKGRFTISRDNSKNTLYLQMNSLRAEDTAVYYCAKNFFDGSWFLGPPAMDYWGQGTLVTVSSHHHHHH | 180

Below: the item to evaluate.
Query string: Item under review: AS170036 VL1VH1 HG56I (scFv) scFv: QSALTQPRSVSGSPGQSVTISCAGTSSDVGSENYVSWYQQHPGKAPKLMIYQVNKRASGVPDRFSGSKSGNTASLTISGLQAEDEADYYCASYRSSDHNIVFGGGTKLTVLGGGGSGGGGSGGGGSEVQLVESGGGLVQPGGSLRLSCAASGFTFSSYAMSWVRQAPGKGLEWVSTINSGTISPYYADSVKGRFTISRDNSKNTLYLQMNSLRAEDTAVYYCAKNFFDGSWFLGPPAMDYWGQGTLVTVSSHHHHHH . Reported Kd?
Result string: 1100
